We begin with a simple list: items and their reported metabolised.
# Target or test system: Trypsin (Homo sapiens, UniProt P07477+P07478+P35030)
# Assay name: Proteolytic stability of compound assessed as trypsin (unknown origin) mediated drug hydrolysis measured at 10 to 60 mins by HPLC analysis
# Format: ADME, protein assay
# Assay context: time 10-60 min, read-out: Drug degradation
Positions of bridges follow the written chain, without caps; N, C: chain ends. Non-standard residues stand in square brackets, D forms with d. Residues, ends and D or L forms follow the SMILES beside them. S5 = C=CCCC[C@](C)(N)C(=O)O; Nle = CCCC[C@H](N)C(=O)O; Orn = NCCC[C@H](N)C(=O)O; Dab = NCC[C@H](N)C(=O)O
The response must be a number in % with no trailing unit.

CCCC[C@@H]1NC(=O)[C@H](CCCN)NC(=O)[C@H](Cc2c[nH]c3ccccc23)NC(=O)[C@@](C)(NC(=O)[C@@H](N)CCCN)CCC/C=C/CCC[C@@](C)(C(=O)N[C@@H](CCCN)C(N)=O)NC1=O (H-[Orn][S5]W[Orn][Nle][S5][Orn]-NH2; staple (E) 2-6) | 11

We now examine a further molecule.
Consider CCCC[C@@H]1NC(=O)[C@H](CCN)NC(=O)[C@H](Cc2c[nH]c3ccccc23)NC(=O)[C@@](C)(NC(=O)[C@@H](N)CCN)CCC/C=C/CCC[C@@](C)(C(=O)N[C@@H](CCN)C(N)=O)NC1=O (H-[Dab][S5]W[Dab][Nle][S5][Dab]-NH2; staple (E) 2-6) . Its measured metabolised is 11
